Origin of the recorded values: patent US20040097421A1

tested on: U-1906E (small cell lung cancer); assay: cells; assay type: cell-based; conditions: Homo sapiens, read-out: IC50 (μM), U-1906E
experimental_endpoint: IC50 (µM)
Answer format: numeric, µM implied, no suffix.

{"columns": ["query_smiles", "IC50 [µM]"],
 "data": [
  ["CC[C@@]1(O)C(=O)OCc2c1cc1n(c2=O)Cc2cc3c(CN(C)C)c(O)ccc3nc2-1", 0.08],
  ["CC(=O)O[C@@]12CO[C@@H]1C[C@H](O)[C@@]1(C)C(=O)[C@H](O)C3=C(C)[C@@H](OC(=O)[C@H](O)[C@@H](NC(=O)OC(C)(C)C)c4ccccc4)C[C@@](O)([C@@H](OC(=O)c4ccccc4)[C@H]21)C3(C)C", 0.1]
]}

Briefly, IC50 measured for `COc1cccc2c1C(=O)c1c(O)c3c(c(O)c1C2=O)C[C@@](O)(C(=O)CO)C[C@@H]3O[C@H]1C[C@H](N)[C@H](O)[C@H](C)O1` : 0.44
